- assay.text: Cytotoxicity assay in MT-4 cells
- Format: cell-based
- assay.context: human; uninfected MT-4 cells, 5 days incubation, Cell Titer Glo; read-out: MT4 CC50
measure.name: CC50 at 5 days (µM)
Answer in µM, number only, no unit symbol.

Solved entries:
[[record]]
input_smiles = "CCCCCCCCCCCC(=O)Oc1c2n(cc(C(=O)NCc3ccc(F)cc3F)c1=O)[C@@H]1CN(C2=O)[C@@H](C)CC[C@]12CC(OC)=NO2"
numeric_result = 36.2

[[record]]
input_smiles = "COC1=NO[C@@]2(CC[C@H](C)N3C[C@H]2n2cc(C(=O)NCc4ccc(F)cc4F)c(=O)c(OC(=O)C4CCCC4)c2C3=O)C1"
numeric_result = 24.7

[[record]]
input_smiles = "CC1=NO[C@@]2(CC[C@H](C)N3C[C@H]2n2cc(C(=O)NCc4ccc(F)cc4F)c(=O)c(OC(=O)CC(C)C)c2C3=O)C1"
numeric_result = 16.4

[[record]]
input_smiles = "CC1=NO[C@@]2(CC[C@H](C)N3C[C@H]2n2cc(C(=O)NCc4ccc(F)cc4F)c(=O)c(OC(=O)OCCCCCCCC(C)C)c2C3=O)C1"
numeric_result = 12.6


Kindly review the next compound as well.
Please report CC50 at 5 days for the following compound: CCCCC(=O)OCOc1c2n(cc(C(=O)NCc3ccc(F)cc3F)c1=O)[C@@H]1CN(C2=O)[C@@H](C)CC[C@]12CC(C)=NO2 18.2

* * *

# reported CC50 at 5 days; entries follow
- assay.text: Cytotoxicity assay in MT-4 cells
- Format: cell-based
- assay.context: human; uninfected MT-4 cells, 5 days incubation, Cell Titer Glo; read-out: MT4 CC50
Express it in µM; write the number only.

[[record]]
input_smiles = "CO[C@@H](C)COC(=O)OCOc1c2n(cc(C(=O)NCc3ccc(F)cc3F)c1=O)[C@@H]1CN(C2=O)[C@@H](C)CC[C@]12CC(C)=NO2"
measure_name = "CC50 at 5 days"
measurement_units = "µM"
numeric_result = 33.9

[[record]]
input_smiles = "CC/C=C\\C/C=C\\C/C=C\\C/C=C\\C/C=C\\CCCC(=O)Oc1c2n(cc(C(=O)NCc3ccc(F)cc3F)c1=O)[C@@H]1CN(C2=O)[C@@H](C)CC[C@]12CC(C)=NO2"
measure_name = "CC50 at 5 days"
measurement_units = "µM"
numeric_result = 16.5


Fill in reported CC50 at 5 days for this entry: CC1=NO[C@@]2(CC[C@H](C)N3C[C@H]2n2cc(C(=O)NCc4ccc(F)cc4F)c(=O)c(OCOC(=O)CCCCCCC(C)C)c2C3=O)C1 42.3

Please give the documented CC50 at 5 days of CCCCCCCCCCOC(=O)Oc1c2n(cc(C(=O)NCc3ccc(F)cc3F)c1=O)[C@@H]1CN(C2=O)[C@@H](C)CC[C@]12CC(OC)=NO2 15.9

* * *

- assay.text: physchem
- Assay type: physicochemical
- assay.context: 23 °C, thermodynamic from solid; FaSSIF, 24 h, ambient temperature, 5 mg/mL dose concentration
- Procedure: Approximately 7 mg of each test compound as a dry powder was placed in a vial. Aliquots were weighed out for each assay media at 2 hour and 24 hour time points, to be analyzed. The appropriate buffer (FaSSIF or PBS) was added to each vial such that the final dose concentration of 5 mg/mL was achieved. […] The plate was sealed with a pierceable heat seal and analyzed by HPLC-UV. A system QC (0.01 mg/mL Caffeine in DMSO) was injected every 12-15 injections. […]
Please assign a class to every record based on measured solubility thermodynamic at 24 h, with ranges lower level: < 70 µg/mL; middle level: ≥ 70 µg/mL and < 200 µg/mL; upper level: ≥ 200 µg/mL

[[record]]
compound = "CC1=NO[C@@]2(CC[C@H](C)N3C[C@H]2n2cc(C(=O)NCc4ccc(F)cc4F)c(=O)c(O[C@@H](C)OC(=O)OC(C)C)c2C3=O)C1 (single isomer, unassigned) [Example 21]"
label_value = "middle level"

[[record]]
compound = "CC1=NO[C@@]2(CC[C@H](C)N3C[C@H]2n2cc(C(=O)NCc4ccc(F)cc4F)c(=O)c(OC(=O)C(C)(C)C)c2C3=O)C1 [Example 19]"
label_value = "middle level"

[[record]]
compound = "COCCOC(=O)OCOc1c2n(cc(C(=O)NCc3ccc(F)cc3F)c1=O)[C@@H]1CN(C2=O)[C@@H](C)CC[C@]12CC(OC)=NO2 [Example 5]"
label_value = "middle level"

[[record]]
compound = "COC(=O)OCOc1c2n(cc(C(=O)NCc3ccc(F)cc3F)c1=O)[C@@H]1CN(C2=O)[C@@H](C)CC[C@]12CC(C)=NO2 [Example 12]"
label_value = "lower level"

[[record]]
compound = "COCCOCCOCCOC(=O)Oc1c2n(cc(C(=O)NCc3ccc(F)cc3F)c1=O)[C@@H]1CN(C2=O)[C@@H](C)CC[C@]12CC(OC)=NO2 [Example 3]"
label_value = "upper level"

[[record]]
compound = "COCCOCCOC(=O)Oc1c2n(cc(C(=O)NCc3ccc(F)cc3F)c1=O)[C@@H]1CN(C2=O)[C@@H](C)CC[C@]12CC(C)=NO2 [Example 8]"
label_value = "upper level"


Band of CC(=O)Oc1c2n(cc(C(=O)NCc3ccc(F)cc3F)c1=O)[C@@H]1CN(C2=O)[C@@H](C)CC[C@]12CC(C)=NO2 [Example 16] ? upper level

Which bin should I file CC1=NO[C@@]2(CC[C@H](C)N3C[C@H]2n2cc(C(=O)NCc4ccc(F)cc4F)c(=O)c(OCOC(=O)OC(C)C)c2C3=O)C1 [Example 24] under? lower level

Into which bin does this compound go? COCCOC(=O)OCOc1c2n(cc(C(=O)NCc3ccc(F)cc3F)c1=O)[C@@H]1CN(C2=O)[C@@H](C)CC[C@]12CC(C)=NO2 [Example 10] lower level

src = patent US20250122219A1
